Please provide measured cytotoxicity at 10 µM for the entries that follow.
# protocol-notes: Toxicity liver stage against HepG2, at 10uM
# Assay type: cell-based
# Design: test concentration 10 uM, cell line HepG2-A16-CD81EGFP
# condition: human, HepG2-A16-CD81EGFP cells; read-out: INHIBITION
One number for each entry, in %.

compound	unit-label	numeric-value
O=S(=O)(N[C@@H]1CCO[C@]2(CCN(CC3CCOCC3)C2)C1)C1CC1	%	-142
CC(NCc1c(C(C)C)nn(C)c1N1CCOCC1)C(=O)N(C)C (stereo unspecified)	%	-10.7
CCc1nc(N2CCOCC2)ncc1C(=O)NC(c1cccs1)C(C)C (stereo unspecified)	%	12.3
CSc1ccc(C(=O)N2CCCC(Nc3ccc(F)cc3)C2)cc1 (stereo unspecified)	%	-11.4
CN(C)c1ccc(C(=O)N2CCCCC2CC(N)=O)c(F)c1 (stereo unspecified)	%	7.12

# input for lookup
Consider the compound shown here: CC(C)Cc1ncc2c(n1)CN(C(=O)Cn1c(=O)oc3ccccc31)C2 What is its recorded cytotoxicity at 10 µM? -36.2
